Data origin: ChEMBL document CHEMBL4020835

assay: Cmax in Wistar Han rat at 3 mg/kg via oral gavage measured up to 24 hrs post dose by LC-MS/MS analysis; type: ADME, organism-based; parameters: dose 3 mg/kg, route oral; settings: in vivo
measuredMetric: Cmax (ng/mL)
The reply should contain only the number, in ng/mL.

smilesRepr	Cmax [ng/mL]
COc1nc(N(C)C)ccc1-c1cc2c(C(=O)O)c[nH]c2cc1Cl	10200

// recorded Cmax for O=C(O)c1c[nH]c2cc(F)c(-c3ccc([C@@H]4CCCCO4)cc3)c(F)c12 : 1890

----------
assay: Cmax in cynomolgus monkey at 3 mg/kg via oral gavage measured up to 24 hrs post dose by LC-MS/MS analysis; format: ADME, organism-based, Macaca fascicularis; set-up: dose 3 mg/kg, route oral; details: in vivo
Below, each entry is listed alongside its reported Cmax.
The reply should contain only the number, in ng/mL.

smilesRepr	unitsSymbol	Cmax
COc1nc(N(C)C)ccc1-c1cc2c(C(=O)O)c[nH]c2cc1Cl	ng/mL	2540

--- query ---
// recorded Cmax for O=C(O)c1c[nH]c2cc(F)c(-c3ccc([C@@H]4CCCCO4)cc3)c(F)c12 : 8180

----------
Below, each entry is listed alongside its reported dose excreted at 24 h.
assay: in vivo; conditions: Wistar Han, rat, urine, iv, 1 mg/kg
The reply should contain only the number, in %.

Some molecules with recorded dose excreted at 24 h:
smilesRepr	measuredMetric	readoutValue
O=C(O)c1c[nH]c2cc(Cl)c(-c3ccc(OCCCN4CCOCC4)cc3)cc12	dose excreted at 24 h	12
O=C(O)c1c[nH]c2cc(F)c(-c3ccc(C4(O)CCC4)cc3)c(F)c12	dose excreted at 24 h	10.7

// recorded dose excreted at 24 h for O=C(O)c1c[nH]c2cc(F)c(-c3ccc([C@@H]4CCCCO4)cc3)c(F)c12 : 1.6

// recorded dose excreted at 24 h for O=C(O)c1c[nH]c2cc(Cl)c(-c3ccc(OCCO)cc3)cc12 : 10

----------
experiment: AUC (0 to 24 hrs) in Wistar Han rat at 1 mg/kg, iv via bolus dose measured up to 24 hrs post dose by LC-MS/MS analysis; assay type: ADME, organism-based; parameters: time < 24 hr, dose 1 mg/kg, route intravenous; settings: Wistar Han, in vivo
measuredMetric: AUC(0-t) at 24 h (ng·h/mL)
The reply should contain only the number, in ng·h/mL.

// recorded AUC(0-t) at 24 h for O=C(O)c1c[nH]c2cc(F)c(-c3ccc([C@@H]4CCCCO4)cc3)c(F)c12 : 16400

----------
test: Thermodynamic solubility of the compound in sodium phosphate buffer at pH 7.4 after 24 hrs by nitrogen detection method; type: physicochemical; details: read-out: Therm_solubility
measuredMetric: solubility thermodynamic at 24 h (µM)
The reply should contain only the number, in µM.

smilesRepr	unitsSymbol	readoutValue
COc1nc(N(C)C)ccc1-c1cc2c(C(=O)O)c[nH]c2cc1Cl	µM	120

// recorded solubility thermodynamic at 24 h for O=C(O)c1c[nH]c2cc(F)c(-c3ccc([C@@H]4CCCCO4)cc3)c(F)c12 : 14

----------
test: physchem; conditions: buffer, pH 7.4
measuredMetric: logD
Please state the value as a number alone, without comment.

Some compounds with recorded logD:
compound	logD
CN(C)c1ccc(-c2cc3c(C(=O)O)c[nH]c3cc2Cl)cn1	1.7
O=C(O)c1c[nH]c2cc(F)c(-c3ccc([C@@H]4CCCCO4)cc3)c(F)c12	1.9
O=C(O)c1c[nH]c2cc(Cl)c(-c3ccc(OCCO)cc3)cc12	1.1
COc1ccc(-c2cc3c(C(=O)O)c[nH]c3cc2Cl)cn1	1.8
N#Cc1cc2[nH]cc(C(=O)O)c2cc1-c1ccc(C2(O)CCC2)cc1	1.1
COCCOc1ccc(-c2cc3c(C(=O)O)c[nH]c3cc2Cl)cc1	1.8
O=C(O)c1c[nH]c2cc(F)c(-c3ccc([C@H]4CCCCO4)cc3)c(F)c12	2
O=C(O)c1c[nH]c2cc(Cl)c(-c3ccc(OCCCN4CCOCC4)cc3)cc12	1.8
COc1nc(N(C)C)ccc1-c1cc2c(C(=O)O)c[nH]c2cc1Cl	2.3
COc1ccc(-c2cc3c(C(=O)O)c[nH]c3cc2Cl)c(OC)n1	2.1

// recorded logD for O=C(O)c1c[nH]c2cc(Cl)c(-c3ccc(C4CCCCO4)cc3)cc12 (configuration not stated) : 2.8

// recorded logD for O=C(O)c1c[nH]c2cc(F)c(-c3ccc(C4(O)CCC4)cc3)c(F)c12 : 1.3

----------
test: Volume of distribution at steady state in Wistar Han rat at 1 mg/kg, iv via bolus dose measured up to 24 hrs post dose by LC-MS/MS analysis; type: ADME, organism-based; details: in vivo, read-out: Vdss
Below, each entry is listed alongside its reported Vd.
The reply should contain only the number, in L/kg.

smilesRepr	Vd [L/kg]
O=C(O)c1c[nH]c2cc(F)c(-c3ccc([C@@H]4CCCCO4)cc3)c(F)c12	0.31

// recorded Vd for COc1nc(N(C)C)ccc1-c1cc2c(C(=O)O)c[nH]c2cc1Cl : 0.1

----------
test: physchem
Below, each entry is listed alongside its reported pKa.

Some compounds with recorded pKa:
smilesRepr	measuredMetric	readoutValue
O=C(O)c1c[nH]c2cc(Cl)c(-c3ccc(OCCCN4CCOCC4)cc3)cc12	pKa	5.4 to 7.1
O=C(O)c1c[nH]c2cc(Cl)c(-c3ccc(OCCO)cc3)cc12	pKa	4.8
COCCOc1ccc(-c2cc3c(C(=O)O)c[nH]c3cc2Cl)cc1	pKa	5
COc1ccc(-c2cc3c(C(=O)O)c[nH]c3cc2Cl)cn1	pKa	2.4 to 4.9
COc1nc(N(C)C)ccc1-c1cc2c(C(=O)O)c[nH]c2cc1Cl	pKa	2.6 to 4.9

--- query ---
// recorded pKa for CN(C)c1ccc(-c2cc3c(C(=O)O)c[nH]c3cc2Cl)cn1 : 4.7 to 6.2

----------
Below, each entry is listed alongside its reported Tmax.
assay: Tmax in cynomolgus monkey at 3 mg/kg via oral gavage by LC-MS/MS analysis; format: ADME, organism-based, Macaca fascicularis; conditions: in vivo
The reply should contain only the number, in h.

smilesRepr	Tmax [h]
O=C(O)c1c[nH]c2cc(F)c(-c3ccc([C@@H]4CCCCO4)cc3)c(F)c12	2

--- query ---
// recorded Tmax for COc1nc(N(C)C)ccc1-c1cc2c(C(=O)O)c[nH]c2cc1Cl : 1.5

----------
Below, each entry is listed alongside its reported Tmax.
experiment: Tmax in Wistar Han rat at 3 mg/kg via oral gavage by LC-MS/MS analysis; format: ADME, organism-based; conditions: in vivo
Please state the value followed by its unit.

smilesRepr	Tmax
COc1nc(N(C)C)ccc1-c1cc2c(C(=O)O)c[nH]c2cc1Cl	5.5 h

// recorded Tmax for O=C(O)c1c[nH]c2cc(F)c(-c3ccc([C@@H]4CCCCO4)cc3)c(F)c12 : 2.7 h

----------
Below, each entry is listed alongside its reported pKa.
test: physchem
Please state the value as a number alone, without comment.

compound	pKa
O=C(O)c1c[nH]c2cc(Cl)c(-c3ccc(C4CCCCO4)cc3)cc12 (stereo not given)	4.9

// recorded pKa for O=C(O)c1c[nH]c2cc(F)c(-c3ccc([C@@H]4CCCCO4)cc3)c(F)c12 : 5

// recorded pKa for COc1ccc(-c2cc3c(C(=O)O)c[nH]c3cc2Cl)c(OC)n1 : 4.8

// recorded pKa for N#Cc1cc2[nH]cc(C(=O)O)c2cc1-c1ccc(C2(O)CCC2)cc1 : 4.6

// recorded pKa for O=C(O)c1c[nH]c2cc(F)c(-c3ccc(C4(O)CCC4)cc3)c(F)c12 : 4.9

----------
experiment: Oral bioavailability in Wistar Han rat at 3 mg/kg via gavage measured up to 24 hrs post dose by LC-MS/MS analysis; type: ADME, organism-based; details: Wistar Han, in vivo
measuredMetric: bioavailability (%)
The reply should contain only the number, in %.

// recorded bioavailability for O=C(O)c1c[nH]c2cc(F)c(-c3ccc([C@@H]4CCCCO4)cc3)c(F)c12 : 26
